System: HT29 colon
Assay: NCI-60 one-dose screen, 48 h
Conditions: 10 µM
Procedure: Growth inhibition of the HT29 human tumor cell line is measured as a screen for anti-cancer activity. Cells are grown in 96 well plates and exposed to the test compound for 48 hours. Compounds are tested at a single concentration, which is 10^-5 M for most compounds. The reported endpoint is percent growth (GI% or GIPRCNT), where numbers from 0 - 100% represent growth inhibition, and numbers from -100% - 0 represent cell death. For example, a value of 40 represents 60% growth inhibition. […]
Compounds without any hit were thinned out: in the full panel of roughly 83,000, 20% have a hit. Activity calls are given as the source filed them. The calls were made as follows: active = growth percent below 10; inactive = the rest.
// one of TRUE = active, FALSE = inactive, no free text

Check out these entries, answers already filled in.
| Molecule | System | Group |
| --- | --- | --- |
| COc1cc(-c2cc(/C=C/C(=O)c3ccc(Cl)c(Cl)c3)[nH]n2)cc(OC)c1OC | HT29 colon | FALSE |
| CCCN(CCC)CCC(O)c1cc2c(c3ccccc13)CCCC2 (stereo not given) | HT29 colon | FALSE |
| Clc1ccc2c(NCCCNc3nccc(Nc4ccc(Br)cc4)n3)ccnc2c1 | HT29 colon | TRUE |
| O=C(N/N=C/c1ccccc1O)C(O)(c1ccccc1)c1ccccc1 | HT29 colon | FALSE |
| CCCCCCN1C(=O)C2=C(c3ccc(Cl)cc3)Nc3c(c(C)nn3-c3ccccc3)C2c2ccccc21 (stereo not given) | HT29 colon | FALSE |
| CC(=O)O[C@]1(C)CC[C@H]2[C@H](CNCCc3ccc(Cl)cc3)C(=O)O[C@@H]2C2=C(C)C(=O)C[C@H]21 | HT29 colon | FALSE |
| COc1cc(-c2cc(C(=O)N3CCN(C(=O)c4ccccc4NCc4ccco4)CC3)nc3cc(-c4ccccc4)nn23)cc(OC)c1OC | HT29 colon | TRUE |
| O=C1NC(=O)N(Cc2ccccc2)CC1Br (stereo not given) | HT29 colon | FALSE |
| COc1cc2c(cc1OC)N(CCO)C1=C(C(=O)OC1)C2c1ccc(Cl)c(Cl)c1 (stereo not given) | HT29 colon | FALSE |
| COc1cc(-c2cc(/C=C/C(=O)c3ccc(F)c(F)c3)[nH]n2)cc(OC)c1OC | HT29 colon | FALSE |

*Q* Record lookup: outcome of this test for CN1c2ccccc2[C@]2(Cc3ccccc3)Cc3ccccc3N[C@H]12 ?
*A* FALSE

*Q* Hi, do you know how CS(=O)(=O)Nc1ccc(Nc2c3ccccc3nc3cc([N+](=O)[O-])ccc23)cc1 came out in this test?
*A* FALSE

*Q* Which outcome was entered for the molecule CN(C)c1ccc(Cc2ccc(N(C)C)cc2Cl)c(Cl)c1 in this test?
*A* FALSE

*Q* Entry CCCCCCN(CCCCCC)CC(O)c1ccc2c3c(cccc13)CC2 (stereo not given) : call = ?
*A* TRUE

*Q* Please let me know the test result on file for C#Cc1ccc(-n2c(/C=C/c3ccc4ccccc4c3)nc3ncccc3c2=O)cc1 .
*A* TRUE

*Q* Answer briefly: the call reported for O=C(Nc1ccncc1)C(=O)c1cn(S(=O)(=O)c2cc(Cl)cc(Cl)c2)c2ccccc12 in this assay.
*A* FALSE

*Q* Short answer needed: outcome of this test for Clc1cc2c(c(CSc3nc4ccccc4n4cccc34)c1)OCOC2 ?
*A* FALSE

*Q* Dear colleague, could you share the recorded outcome for CN(C)C(=S)N/N=C\C=N/NC(=S)N(C)C when you have a moment?
*A* FALSE

*Q* How was O=C(Nc1cccc(-n2cc(-c3ccncc3)c(-c3ccc(O)c(Cl)c3)n2)c1)c1ccc(Cl)c(Cl)c1 classified in this test?
*A* FALSE

*Q* // param item: CCCCN(CCCC)CCCCCCCCC(O)c1cc2ccccc2c2ccccc12 (stereo not given) ; yields the recorded call
*A* FALSE
